test.description: In-vivo effect: animal experiments and sample analysis (plasma, brain, CSF concentration)
conditions: brain; rat, 0.5 h between administration and CSF sampling; read-out: c(brain)/c(plasma)
Provide the recorded Kp at 0.5 h for the entries that follow.
Kindly provide the number alone.

Note Kp at 0.5 h for the compound shown: O=C(NC1(c2ccc(C(F)(F)F)cc2F)CCOCC1O)c1cnn2cc(C3CC3)cnc12 (single isomer, unassigned) [Example 82a]
0.36

Read the entry Cc1nn2cc(C3CC3)cnc2c1C(=O)NC1(c2ccc(C(F)(F)F)cn2)CCOCC1 and write its reported Kp at 0.5 h.
1.17

Consider the compound Cc1nn2cc(C3CC3)cnc2c1C(=O)NC1(c2ccc(C(F)(F)F)nc2)CCOCC1 and give its recorded Kp at 0.5 h.
0.92

====

Field: pIC50. Provide a value for each of the compounds that follow.
subject.of.test: PDE 2A (Homo sapiens (Human))
Sequence (O00408 whole entry, species assumed): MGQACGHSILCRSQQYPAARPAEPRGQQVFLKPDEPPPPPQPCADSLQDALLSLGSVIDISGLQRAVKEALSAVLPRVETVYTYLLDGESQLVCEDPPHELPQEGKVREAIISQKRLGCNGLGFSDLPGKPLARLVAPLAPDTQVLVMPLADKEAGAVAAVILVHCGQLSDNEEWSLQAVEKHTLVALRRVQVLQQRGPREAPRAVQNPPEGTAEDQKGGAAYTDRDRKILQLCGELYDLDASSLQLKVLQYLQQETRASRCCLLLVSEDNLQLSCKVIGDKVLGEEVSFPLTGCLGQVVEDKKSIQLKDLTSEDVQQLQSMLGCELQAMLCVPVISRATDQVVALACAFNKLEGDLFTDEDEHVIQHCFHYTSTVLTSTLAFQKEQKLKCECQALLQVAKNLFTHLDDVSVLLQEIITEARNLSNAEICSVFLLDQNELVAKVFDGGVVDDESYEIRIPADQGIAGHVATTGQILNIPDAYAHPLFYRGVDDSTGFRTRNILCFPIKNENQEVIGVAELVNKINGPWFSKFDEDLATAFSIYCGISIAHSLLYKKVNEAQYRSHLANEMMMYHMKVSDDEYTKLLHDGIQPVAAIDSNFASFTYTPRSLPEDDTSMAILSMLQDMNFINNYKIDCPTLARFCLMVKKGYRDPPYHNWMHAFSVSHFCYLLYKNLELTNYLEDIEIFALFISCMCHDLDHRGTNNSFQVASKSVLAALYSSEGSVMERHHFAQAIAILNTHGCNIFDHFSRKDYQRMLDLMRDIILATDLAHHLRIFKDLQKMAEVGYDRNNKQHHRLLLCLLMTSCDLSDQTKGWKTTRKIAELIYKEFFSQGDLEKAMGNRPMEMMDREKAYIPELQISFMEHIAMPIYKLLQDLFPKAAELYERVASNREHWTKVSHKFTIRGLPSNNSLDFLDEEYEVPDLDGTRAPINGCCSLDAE
test.description: Phosphodiesterase (PDE) 2A assay with fluorescent substrate (IMAP, fluorescence polarization)
Format: biochemical
conditions: labeled cAMP 30 nM, read-out: PDE2 IC50
In simple prose, pIC50 is minus the logarithm base ten of a concentration in moles per litre.

Determine from records and report pIC50 for O=C(NC1(c2ccc(C(F)(F)F)cc2F)CCOCC1O)c1cnn2cc(C3CC3)cnc12 (single isomer, unassigned) [Example 82a]
8.92

Quote pIC50 reported for O=C(NC1(c2ccc(C(F)(F)F)nc2)CCOCC1O)c1cnn2cc(C3CC3)cnc12 (single isomer, unassigned) [Example 89a] please.
6.00

// Input: O=C(NC1(c2ccc(C(F)(F)F)cc2F)CCOCC1)c1cnn2cc(F)cnc12 . Output its pIC50 only.
6.58

Respond only with pIC50 recorded for Cc1cnc2c(C(=O)NC3(c4ccc(C(F)(F)F)cc4F)CCCOC3)cnn2c1 (racemic)
7.52

Output pIC50 of Cc1nn2cc(C3CC3)cnc2c1C(=O)NC1(c2ncc(C(F)(F)F)cc2F)CCOCC1O (single isomer, unassigned) [Example 90a]
6.70

Dear colleague, please send me the reported pIC50 for O=C(NC1(c2ncc(C(F)(F)F)cc2F)CCOCC1)c1cnn2cc(C3CC3)cnc12 when you can.
6.76

In one line, give reported pIC50 of the entry O=C(NC1(c2ccc(C(F)(F)F)cc2F)CCOCC1=O)c1cnn2cc(C3CC3)cnc12 (stereo not shown) .
7.60

====

Test system: MDCK-MDR1 cell monolayers
test.description: Assessment of efflux in MDCK cells transfected with the human MDR1 gene (MDCK assay)
Type: in vitro ADME, canine
conditions: MDCK-MDR1, apical-to-basal, pH 7.4, 37° C.
measure: Papp (a-b) mean

Give Papp (a-b) mean for Cc1cnc2c(C(=O)NC3(c4ccc(C(F)(F)F)cc4F)CCOCC3(C)O)cnn2c1 (single isomer, unassigned) [Example 84b] tested on MDCK-MDR1 cell monolayers.
23 10-6 cm/s

With MDCK-MDR1 cell monolayers as the test system, provide measured Papp (a-b) mean for this molecule: O=C(NC1(c2ccc(C(F)(F)F)cc2F)COCC1O)c1cnn2cc(C3CC3)cnc12 (single isomer, unassigned) [Example 70]
20 10-6 cm/s

Provide Papp (a-b) mean, system MDCK-MDR1 cell monolayers, entry Cc1cnc2c(C(=O)NC3(c4ccc(C(F)(F)F)cc4F)CCOCC3(C)O)cnn2c1 (single isomer, unassigned) [Example 84a]
31 10-6 cm/s

State Papp (a-b) mean (MDCK-MDR1 cell monolayers) of Cc1cnc2c(C(=O)NC3(c4ccc(C(F)(F)F)cc4F)CCOCC3O)cnn2c1 (single isomer, unassigned) [Example 81b] .
64 10-6 cm/s

// fetch Papp (a-b) mean for O=C(NC1(c2ccc(C(F)(F)F)cc2F)COCC1O)c1cnn2cc(C3CC3)cnc12 (single isomer, unassigned) [Example 71] ; system: MDCK-MDR1 cell monolayers
23 10-6 cm/s

====

Heads up, these molecules all have IC50 values measured for PDE10 (Homo sapiens (Human), UniProt Q9Y233).

Dear colleague, please send me the reported IC50 for O=C(NC1(c2ccc(C(F)(F)F)cn2)CCOCC1O)c1cnn2cc(C3CC3)cnc12 (racemic) [Example 63] when you can.
> 10 µM

Determine its reported IC50: Cc1nn2cc(C3CC3)cnc2c1C(=O)NC1(c2ncc(C(F)(F)F)cc2F)CCOCC1O (racemic) [Example 61]
6.65 µM

// Input: Cc1cnc2c(C(=O)NC3(c4ccc(OC(F)F)c(F)c4)CCOCC3)cnn2c1 [Example 15] . Output its IC50 only.
> 10 µM

Specify measured IC50 for Cc1cnc2c(C(=O)NC3(c4ccc(C(F)(F)F)cc4F)COCC3O)cnn2c1 (single isomer, unassigned) [Example 75] .
> 10 µM

Supply reported IC50 belonging to this molecule: Cc1cnc2c(C(=O)NC3(c4ccc(C(F)(F)F)nc4)CCOCC3)c(C)nn2c1 [Example 26]
> 10 µM

Quick one: give measured IC50 for O=C(NC1(c2ccc(C(F)(F)F)cc2F)COCC1O)c1cnn2cc(C3CC3)cnc12 (single isomer, unassigned) [Example 69]
> 10 µM

Complete the entry with IC50 for Cc1cnc2c(C(=O)NC3(c4ccc(C(F)(F)F)cc4F)COCC3O)cnn2c1 (single isomer, unassigned) [Example 74]
> 10 µM

Could you please provide reported IC50 for Cc1cnc2c(C(=O)NC3(c4ccc(C(F)(F)F)nc4)CCOCC3O)cnn2c1 (single isomer, unassigned) [Example 87a] ? Thanks!
> 10 µM

// Input: Cc1cnc2c(C(=O)NC3(c4ccc(C(F)(F)F)cc4)CCOC3)cnn2c1 (racemic) [Example 36] . Output its IC50 only.
> 10 µM

Write down IC50 measured for item O=C(NC1(c2ccc(C(F)(F)F)cc2F)CCOCC1O)c1cnn2cc(C3CC3)cnc12 (single isomer, unassigned) [Example 82a]
> 10 µM

Supply measured IC50 of Cc1nn2cc(C3CC3)cnc2c1C(=O)NC1(c2ncc(C(F)(F)F)cc2F)CCOCC1 [Example 17] in your reply.
6.94 µM

Please report the measured IC50 for O=C(NC1(c2ccc(C(F)(F)F)cc2F)COCC1O)c1cnn2cc(C3CC3)cnc12 (single isomer, unassigned) [Example 68]
> 10 µM

Please list IC50 recorded for the molecule Cc1cnc2c(C(=O)NC3(c4ccc(C(F)(F)F)cc4F)COCC3(C)O)cnn2c1 (single isomer, unassigned) [Example 93b]
> 10 µM

Note down IC50 recorded for Cc1cnc2c(C(=O)NC3(c4ccc(C(F)(F)F)cc4F)CCCOC3)cnn2c1 (racemic) [Example 31]
> 10 µM

Please give the documented IC50 of Cc1cnc2c(C(=O)NC3(c4ncc(C(F)(F)F)cc4F)CCOCC3)cnn2c1 [Example 19]
> 10 µM

Provide measured IC50 value, entry: O=C(NC1(c2ccc(Cl)c(F)c2)CCOCC1)c1cnn2cc(C3CC3)cnc12 [Example 16]
> 10 µM

Please supply the value of reported IC50 for the item Cc1cnc2c(C(=O)NC3(c4ccc(C(F)(F)F)cc4F)COCC3(C)O)cnn2c1 (single isomer, unassigned) [Example 92a]
> 10 µM

Please give the documented IC50 of O=C(NC1(c2ncc(C(F)(F)F)cc2F)CCOCC1)c1cnn2cc(C3CC3)cnc12 [Example 20]
> 10 µM

Answer with reported IC50 of Cc1cnc2c(C(=O)NC3(c4ccc(Cl)cc4F)CCOCC3)cnn2c1 [Example 5]
12.2 µM

Look up and report measured IC50 for this entry: O=C(NC1(c2ccc(C(F)(F)F)cc2F)CCOCC1O)c1cnn2cc(C3CC3)cnc12 (single isomer, unassigned) [Example 82b]
8.46 µM

Look up and report measured IC50 for this entry: O=C(N[C@]1(c2ccc(C(F)(F)F)cc2F)CCOC[C@@H]1O)c1cnn2cc(C3CC3)cnc12 (racemic) [Example 49]
> 10 µM

Given O=C(NC1(c2ccc(C(F)(F)F)cc2)CCOC1)c1cnn2cc(C3CC3)cnc12 (racemic) [Example 37] , respond with its IC50.
> 10 µM

Specify measured IC50 for O=C(NC1(c2ccc(C(F)(F)F)nc2)CCOCC1O)c1cnn2cc(C3CC3)cnc12 (single isomer, unassigned) [Example 89a] .
> 10 µM

Given the molecule Cc1nn2cc(C3CC3)cnc2c1C(=O)NC1(c2ncc(C(F)(F)F)cc2F)CCOCC1O (single isomer, unassigned) [Example 90b] , write its reported IC50.
7.35 µM

State its IC50 for this molecule: Cc1nn2cc(C3CC3)cnc2c1C(=O)NC1(c2cnc(C(F)(F)F)c(F)c2)CCOCC1 [Example 29]
5.93 µM

Report IC50 for Cc1cnc2c(C(=O)NC3(c4ccc(C(F)(F)F)cc4F)COCC3(C)O)cnn2c1 (single isomer, unassigned) [Example 93a]
> 10 µM

Fill in IC50 for record Cc1cnc2c(C(=O)NC3(c4ccc(C(F)(F)F)cc4)CCOCC3)cnn2c1 [Example 9]
> 10 µM

Determine from records and report IC50 for Cc1cnc2c(C(=O)NC3(c4ccc(C(F)(F)F)cc4F)COCC3O)cnn2c1 (single isomer, unassigned) [Example 72]
> 10 µM

Complete the entry with IC50 for Cc1cnc2c(C(=O)NC3(c4ccc(C(F)(F)F)cc4F)COCC3(C)O)cnn2c1 (single isomer, unassigned) [Example 92b]
> 10 µM
